Molecular target: Yap3 (UniProt P38749)
Sequence: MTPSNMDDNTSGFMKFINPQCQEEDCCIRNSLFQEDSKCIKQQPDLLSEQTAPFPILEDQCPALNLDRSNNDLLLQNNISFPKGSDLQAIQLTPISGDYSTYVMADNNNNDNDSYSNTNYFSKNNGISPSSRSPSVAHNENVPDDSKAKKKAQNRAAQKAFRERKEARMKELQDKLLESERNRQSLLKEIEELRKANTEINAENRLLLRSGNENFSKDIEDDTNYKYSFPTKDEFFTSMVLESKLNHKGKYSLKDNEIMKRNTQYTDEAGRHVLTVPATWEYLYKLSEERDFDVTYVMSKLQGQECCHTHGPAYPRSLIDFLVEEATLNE
Assay: PBM E-score (8-mer binding enrichment) (E-score (-0.5 to 0.5)); higher = stronger / more preferred TF binding
Settings: protein concentration: 100 nM; construct: GST-full length
Whole data set: some 33,000 sequences, median “E-score (-0.5 to 0.5)” near -0.0034, cut for the highest 2% near 0.25. This is one part of a sample in which the highest values are shown more often than they occur.
Response field class: string, computed from recorded PBM E-score by ranges group A = under 0.1, group B = from 0.1 up to 0.2, group C = 0.2 and over

AAAGACAA ... group C
AACCTAAA ... group B
TACTAAAA ... group C

**Query** Dear colleague, I would appreciate it if you could identify the bin for TACTGAAA and reply at your convenience.
**Result** group C

**Query** Same thing, different sequence: ACGTAAAG
**Result** group B

**Query** Same thing, different sequence: CCGCGAGG
**Result** group A

**Query** Same thing, different sequence: ACGTAAGA
**Result** group C

**Query** Same thing, different sequence: AATGCACG
**Result** group A

**Query** Same thing, different sequence: ATAATTCC
**Result** group B

**Query** Same thing, different sequence: ATGTACAA
**Result** group A

###

Molecular target: Yap3 (UniProt P38749)
Sequence: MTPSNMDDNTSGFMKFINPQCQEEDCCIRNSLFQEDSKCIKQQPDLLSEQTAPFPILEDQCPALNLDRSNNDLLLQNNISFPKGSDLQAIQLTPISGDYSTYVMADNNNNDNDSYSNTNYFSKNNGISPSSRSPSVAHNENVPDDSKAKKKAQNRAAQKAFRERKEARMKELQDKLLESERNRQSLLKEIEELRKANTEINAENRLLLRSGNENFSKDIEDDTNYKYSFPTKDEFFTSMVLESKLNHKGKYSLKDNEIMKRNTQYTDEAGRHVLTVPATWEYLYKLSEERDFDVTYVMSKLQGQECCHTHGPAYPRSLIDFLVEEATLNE
Assay: PBM E-score (8-mer binding enrichment) (E-score (-0.5 to 0.5)); higher = stronger / more preferred TF binding
Settings: protein concentration: 100 nM; construct: GST-full length
Over roughly 33,000 sequences, “E-score (-0.5 to 0.5)” has its median near -0.0034; the highest 2% begin near 0.25. For the sample, the highest values were picked, then their nearest neighbours and some sequences at random.
Observed property: PBM E-score
One number for each entry.

// worked examples, PBM E-score included
CGGCAGGC ... -0.189
CGCACACG ... -0.135
ATTAATTA ... 0.241

Batch of 8 sequences: report PBM E-score for each.
1. AAGCGCTT
2. TACGCTGA
3. AAGTTATG
4. CCTCGCAC
5. TCGTAGAA
6. GACAGCTA
7. AGGAAGAT
8. AACCACCG

**Result**
[0.321, 0.156, 0.256, -0.133, -0.0144, -0.119, 0.13, -0.0601]

Batch of 8 sequences: report PBM E-score for each.
1. GGGTAGCA
2. GAAGTCGA
3. ACCACTGC
4. ATTGGGGC
5. GGCCTTAC
6. ATCCCTGA
7. ACTAATTC
8. AAGTTATA

**Result**
[-0.108, 0.0787, -0.048, -0.0386, -0.144, -0.0313, 0.178, 0.175]
